test system: SARS-CoV-2 (Beta, B.1.351); experiment: microbe, parasite or virus in culture; assay type: cell-based; conditions: beta, 50 uM, Vero E6, replicates
Below, each of the molecules is paired with its reported % Inhibition value.
Numeric answer only, unit % assumed.

1) CCC(CC)C(=O)OC[C@H]1O[C@@](C#N)(c2ccc3c(N)ncnn23)[C@H](O)[C@@H]1O: 99.9524

Task: Form field - read-out: % Inhibition; system: SARS-CoV-2 (Beta, B.1.351); submitted item: CCCC(=O)OC[C@H]1O[C@@](C#N)(c2ccc3c(N)ncnn23)[C@H](O)[C@@H]1O
Result: 99.9498

Task: Now give it for N#C[C@@]1(c2ccc3c(N)ncnn23)O[C@H](CO)[C@@H](O)[C@H]1O [GS-441524, reference compound] too.
Result: 99.9252

Task: Now give it for CC(C)C(=O)OC[C@H]1O[C@@](C#N)(c2ccc3c(N)ncnn23)[C@H](O)[C@@H]1O too.
Result: 99.9484

Task: Now give it for CC(C)CC(=O)OC[C@H]1O[C@@](C#N)(c2ccc3c(N)ncnn23)[C@H](O)[C@@H]1O too.
Result: 99.982

Task: Now give it for N#C[C@@]1(c2ccc3c(N)ncnn23)O[C@H](COC(=O)c2ccccc2)[C@@H](O)[C@H]1O too.
Result: 99.9455

###

system: SARS-CoV-2 (Beta, B.1.351); test: microbe, parasite or virus in culture; format: cell-based; conditions: beta, 1 uM, Vero E6, replicates
Below, each of the compounds is paired with its reported % Inhibition value.
Write down the value, and be sure its unit follows.

Reference set (2 entries):
1) CCC(CC)C(=O)OC[C@H]1O[C@@](C#N)(c2ccc3c(N)ncnn23)[C@H](O)[C@@H]1O: 0%
2) N#C[C@@]1(c2ccc3c(N)ncnn23)O[C@H](COC(=O)c2ccccc2)[C@@H](O)[C@H]1O: 0%

Task: Form field - read-out: % Inhibition; system: SARS-CoV-2 (Beta, B.1.351); submitted item: CC(C)C(=O)OC[C@H]1O[C@@](C#N)(c2ccc3c(N)ncnn23)[C@H](O)[C@@H]1O
Result: 16.537%

Task: Now give it for CC(C)CC(=O)OC[C@H]1O[C@@](C#N)(c2ccc3c(N)ncnn23)[C@H](O)[C@@H]1O too.
Result: 0%

Task: Now give it for N#C[C@@]1(c2ccc3c(N)ncnn23)O[C@H](CO)[C@@H](O)[C@H]1O [GS-441524, reference compound] too.
Result: 23.8494%

###

system: SARS-CoV-2 (Delta, B.1.617.2); test: microbe, parasite or virus in culture; format: cell-based; conditions: Severe acute respiratory syndrome coronavirus 2, Vero C1008, delta, 10 uM, Vero E6, replicates
PROPERTY_LABEL: inhibition at 10 µM
Write down the value, and be sure its unit follows.

Reference set (2 entries):
1) CC(C)CC(=O)OC[C@H]1O[C@@](C#N)(c2ccc3c(N)ncnn23)[C@H](O)[C@@H]1O: 100%
2) CCC(CC)COC(=O)[C@H](C)N[P@](=O)(OC[C@H]1O[C@@](C#N)(c2ccc3c(N)ncnn23)[C@H](O)[C@@H]1O)Oc1ccccc1 [Remdesivir, remdesivir, reference compound]: 99.2%

Okay, now this compound:
Task: Name the recorded inhibition at 10 µM for CCC(CC)C(=O)OC[C@H]1O[C@@](C#N)(c2ccc3c(N)ncnn23)[C@H](O)[C@@H]1O .
Result: 99.9%

###

system: SARS-CoV-2 (B.1); test: Anti-SARS-CoV-2 activity in Vero E6 cells (viral yield by qRT-PCR); assay type: cell-based; settings: Severe acute respiratory syndrome coronavirus 2, Vero C1008, 10 μM; replicates; sheet Fig.S3
PROPERTY_LABEL: inhibition at 10 µM (%)
Numeric answer only, unit % assumed.

Reference set (5 entries):
1) CCC(CC)C(=O)OC[C@H]1O[C@@](C#N)(c2ccc3c(N)ncnn23)[C@H](O)[C@@H]1O [ATV011]: 93.2
2) CC(C)CC(=O)OC[C@H]1O[C@@](C#N)(c2ccc3c(N)ncnn23)[C@H](O)[C@@H]1O [ATV017]: 93.6
3) N#C[C@@]1(c2ccc3c(N)ncnn23)O[C@H](CO)[C@@H](O)[C@H]1O [GS-441524, reference compound]: 90.7
4) CC(C)C(=O)OC[C@H]1O[C@@](C#N)(c2ccc3c(N)ncnn23)[C@H](O)[C@@H]1O [ATV006]: 93.2
5) N#C[C@@]1(c2ccc3c(N)ncnn23)O[C@H](COC(=O)c2ccccc2)[C@@H](O)[C@H]1O [ATV013]: 93.5

Okay, now this molecule:
Task: Name the recorded inhibition at 10 µM for CCCC(=O)OC[C@H]1O[C@@](C#N)(c2ccc3c(N)ncnn23)[C@H](O)[C@@H]1O [ATV009] .
Result: 93.2

###

test system: SARS-CoV-2 (Delta, B.1.617.2); test: microbe, parasite or virus in culture; type: cell-based; details: delta, 0.25 uM, Vero E6, replicates
PROPERTY_LABEL: % Inhibition
Write down the value, and be sure its unit follows.

Reference set (3 entries):
1. CC(C)CC(=O)OC[C@H]1O[C@@](C#N)(c2ccc3c(N)ncnn23)[C@H](O)[C@@H]1O: 0%
2. CCC(CC)C(=O)OC[C@H]1O[C@@](C#N)(c2ccc3c(N)ncnn23)[C@H](O)[C@@H]1O: 20.35%
3. CC(C)C(=O)OC[C@H]1O[C@@](C#N)(c2ccc3c(N)ncnn23)[C@H](O)[C@@H]1O: 17.4307%

Task: Name the recorded % Inhibition for N#C[C@@]1(c2ccc3c(N)ncnn23)O[C@H](COC(=O)c2ccccc2)[C@@H](O)[C@H]1O .
Result: 0%

###

Below, each of the compounds is paired with its reported inhibition at 2 µM value.
test system: SARS-CoV-2 (Delta, B.1.617.2); assay: microbe, parasite or virus in culture; assay type: cell-based; settings: Severe acute respiratory syndrome coronavirus 2, Vero C1008, delta, 2 uM, Vero E6, replicates
Numeric answer only, unit % assumed.

Task: Name the recorded inhibition at 2 µM for CCCC(=O)OC[C@H]1O[C@@](C#N)(c2ccc3c(N)ncnn23)[C@H](O)[C@@H]1O [ATV009] .
Result: 95.8

Task: Now give it for N#C[C@@]1(c2ccc3c(N)ncnn23)O[C@H](COC(=O)c2ccccc2)[C@@H](O)[C@H]1O [ATV013] too.
Result: 93.4

Task: Now give it for CCC(CC)COC(=O)[C@H](C)N[P@](=O)(OC[C@H]1O[C@@](C#N)(c2ccc3c(N)ncnn23)[C@H](O)[C@@H]1O)Oc1ccccc1 [Remdesivir, remdesivir, reference compound] too.
Result: 58

Task: Now give it for CC(C)C(=O)OC[C@H]1O[C@@](C#N)(c2ccc3c(N)ncnn23)[C@H](O)[C@@H]1O [ATV006] too.
Result: 96.7

Task: Now give it for N#C[C@@]1(c2ccc3c(N)ncnn23)O[C@H](CO)[C@@H](O)[C@H]1O [GS-441524, reference compound] too.
Result: 94.9

Task: Now give it for CC(C)CC(=O)OC[C@H]1O[C@@](C#N)(c2ccc3c(N)ncnn23)[C@H](O)[C@@H]1O [ATV017] too.
Result: 94.4

Task: Now give it for CCC(CC)C(=O)OC[C@H]1O[C@@](C#N)(c2ccc3c(N)ncnn23)[C@H](O)[C@@H]1O [ATV011] too.
Result: 94.4

###

system: SARS-CoV-2 (Delta, B.1.617.2); assay: microbe, parasite or virus in culture; assay type: cell-based; details: delta, 10 uM, Vero E6, replicates
Below, each of the molecules is paired with its reported % Inhibition value.
Numeric answer only, unit % assumed.

Reference set (2 entries):
1. N#C[C@@]1(c2ccc3c(N)ncnn23)O[C@H](CO)[C@@H](O)[C@H]1O [GS-441524, reference compound]: 95.0345
2. N#C[C@@]1(c2ccc3c(N)ncnn23)O[C@H](COC(=O)c2ccccc2)[C@@H](O)[C@H]1O [ATV013]: 98.4346

Task: Name the recorded % Inhibition for CCCC(=O)OC[C@H]1O[C@@](C#N)(c2ccc3c(N)ncnn23)[C@H](O)[C@@H]1O [ATV009] .
Result: 98.6486

Task: Now give it for CC(C)CC(=O)OC[C@H]1O[C@@](C#N)(c2ccc3c(N)ncnn23)[C@H](O)[C@@H]1O [ATV017] too.
Result: 99.8554

Task: Now give it for CCC(CC)C(=O)OC[C@H]1O[C@@](C#N)(c2ccc3c(N)ncnn23)[C@H](O)[C@@H]1O [ATV011] too.
Result: 99.4778

Task: Now give it for CC(C)C(=O)OC[C@H]1O[C@@](C#N)(c2ccc3c(N)ncnn23)[C@H](O)[C@@H]1O [ATV006] too.
Result: 99.4329
